Test: qHTS of pediatric cancer cell lines to identify multiple opportunities for drug repurposing: Primary screen for A673 cells (AID 1347092); further: nearly all actives have a fitted effect of over 45% in size
Details: A673 Ewing sarcoma viability, CellTiter-Glo ATP luminescence, 48 h; series mostly up to 46 µM
Records with an inconclusive call do not appear. Calls of active or inactive are those of the source. The call rests on the fitted dose curve; in most records, active means well fitted cell-killing curve with a large enough effect; inconclusive means small, poorly fitted or top-dose-only effect; inactive means no such curve, though single readings can be large or run the other way.
Write down one outcome, taken from active, inactive

Problem: // return assay outcome for COc1ccc2cc1Oc1ccc(cc1)C[C@H]1c3cc(c(OC)cc3CCN1C)Oc1c(OC)c(OC)cc3c1[C@H](C2)N(C)CC3
Solution: active

Problem: Hi, do you know how O=c1[nH]c(=O)n([C@H]2C[C@@H](O)[C@@H](CO)O2)cc1I came out in this test?
Solution: inactive

Problem: Tell me the assay call for NS(=O)(=O)c1cc(Cl)c(Cl)c(S(N)(=O)=O)c1 please.
Solution: inactive

Problem: Status in this test for Cc1cc(NC(=O)Nc2ccc(N(C)C)cc2)c2cc(F)cc(F)c2n1 ?
Solution: inactive

Problem: Returns: the outcome recorded for CC[C@H](C=C[C@@H](C)[C@H]1CC[C@H]2[C@@H]3CC=C4C[C@@H](O)CC[C@]4(C)[C@@H]3CC[C@]12C)C(C)C in this assay.
Solution: inactive

Problem: Which outcome did this test record for the compound CN1CCC(COc2cnc(-c3cccc(Cn4nc(-c5cccc(C#N)c5)ccc4=O)c3)nc2)CC1 ?
Solution: active

Problem: Tell me the assay call for CCC(=C(CC)c1ccc(O)cc1)c1ccc(O)cc1 please.
Solution: active

Problem: # outcome recorded in this test, key = COc1nccc(-c2c(-c3ccc(F)cc3)ncn2C2CCC(O)CC2)n1 (centres undefined)
Solution: inactive

Problem: Please let me know the test result on file for CC1(C)[C@H]2CC[C@]3(C)[C@@H](C(=O)C=C4[C@@H]5C[C@@](C)(C(=O)O)CC[C@]5(C)CC[C@]43C)[C@@]2(C)CC[C@@H]1O .
Solution: inactive

----------
Biological target: Calcium and integrin-binding protein 1 (Homo sapiens) (UniProt Q99828)
Sequence (Q99828 whole entry, looked up): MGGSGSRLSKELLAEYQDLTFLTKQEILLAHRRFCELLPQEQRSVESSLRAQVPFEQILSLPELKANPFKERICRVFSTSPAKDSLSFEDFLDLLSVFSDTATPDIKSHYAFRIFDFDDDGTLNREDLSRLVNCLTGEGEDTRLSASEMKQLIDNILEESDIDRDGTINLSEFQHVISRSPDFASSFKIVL
Test: Primary qHTS for Identification of Calcium Integrin Binding Protein 1 (CIB1) Competitor (AID 1508620)
Details: CIB1-GST / FITC-alphaIIb peptide fluorescence polarization; series mostly up to 57.7 µM
Inconclusive results are not listed. Calls of active or inactive are those of the source. The call rests on the fitted dose curve; in most records, active means well fitted inhibition curve with a large enough effect; inconclusive means small, poorly fitted or top-dose-only effect; inactive means flat fitted curve, though single readings scatter.
Entry note: the call must match one of yes for active, no for inactive

Problem: Record lookup: outcome of this test for OC[C@H]1O[C@@H](OCCc2ccc(O)cc2)[C@H](O)[C@@H](O)[C@H]1O ?
Solution: no

Problem: What classification did O=S(=O)(NCCNCC=Cc1ccc(Br)cc1)c1cccc2cnccc12 end up with in this test?
Solution: no

Problem: I'd appreciate the recorded outcome for CC[C@H](C)n1cc(C)c2c(C(=O)NCc3c(C)cc(C)[nH]c3=O)cc(-c3ccc(N4CCNCC4)nc3)cc21 from this test.
Solution: no

Problem: // param item: CC=C(C(=CC)c1ccc(O)cc1)c1ccc(O)cc1 ; yields the recorded call
Solution: no

Problem: How did this test come out for CCNC(=O)c1noc(-c2cc(C(C)C)c(O)cc2O)c1-c1ccc(CN2CCOCC2)cc1 ?
Solution: no

Problem: Assay outcome for O=C(NC[C@H](O)CO)c1ccncc1Nc1ccc(I)cc1F : what was it?
Solution: no

Problem: How was CC1CNc2c(cccc2S(=O)(=O)N[C@@H](CCCN=C(N)N)C(=O)N2CC[C@@H](C)C[C@@H]2C(=O)O)C1 (some centres undefined) classified in this test?
Solution: no

Problem: GET /call?item= C[C@H](CCC(=O)O)[C@H]1CC[C@H]2[C@H]3[C@@H](CC[C@]12C)[C@@]1(C)CC[C@@H](O)C[C@H]1C[C@@H]3O returns the recorded outcome of this test.
Solution: no

Problem: Assay result, entry O=[N+]([O-])c1ccc(Nc2ccccc2-c2ccccc2)c2nonc12 — outcome?
Solution: no

Problem: Please share the test call associated with O=c1[nH]nc(OCCCc2ccc(Cl)cc2)c(NCc2cccnc2)c1Br .
Solution: no

Problem: Each molecule tested received a call. Report the one for CC(=O)Nc1cccc(-n2c(=O)n(C3CC3)c(=O)c3c(Nc4ccc(I)cc4F)n(C)c(=O)c(C)c32)c1 .
Solution: no

Problem: Tell me the assay call for NCc1c[nH]c(=S)n1[C@H]1CCc2c(F)cc(F)cc2C1 please.
Solution: no

Problem: Which result was noted for this molecule in the test: NCC1CCC(C(=O)O)CC1 (centres undefined)
Solution: no

Problem: Short answer needed: outcome of this test for OC[C@H]1O[C@@H](Oc2ccc(O)cc2)[C@H](O)[C@@H](O)[C@H]1O ?
Solution: no

Problem: Outcome? O=C(O)Cc1cccc(OCCCN(Cc2cccc(C(F)(F)F)c2Cl)CC(c2ccccc2)c2ccccc2)c1
Solution: no

Problem: Given CC(C)(C)c1nc(-c2cccc(NS(=O)(=O)c3c(F)cccc3F)c2F)c(-c2ccnc(N)n2)s1 , state the outcome it received in this test.
Solution: no

Problem: Recorded test outcome, item Cc1cc2nc3c(=O)[nH]c(=O)nc-3n(CC(O)C(O)C(O)CO)c2cc1C (centres undefined)
Solution: yes

Problem: Recorded test outcome, item CC1(C)OC2CC3C4CC(F)C5=CC(=O)C=CC5(C)C4C(O)CC3(C)[C@]2(C(=O)CO)O1 (some centres undefined)
Solution: no

Problem: Which outcome was entered for the molecule CCN(CCO)CCCOc1ccc2c(Nc3cc(CC(=O)Nc4cccc(F)c4)[nH]n3)ncnc2c1 in this test?
Solution: no

----------
Test: qHTS of pediatric cancer cell lines to identify multiple opportunities for drug repurposing: Primary screen for SK-N-SH cells (AID 1347098); further: nearly all actives have a fitted effect of over 65% in size
Details: SK-N-SH viability, CellTiter-Glo luminescence, 48 h; series mostly up to 57 µM
Records with an inconclusive call do not appear. Active and inactive are the calls of the source. Calls follow the shape of the dose curve; as a rule, active = well fitted cell-killing curve with a large enough effect; inconclusive = small, poorly fitted or top-dose-only effect; inactive = no such curve, though single readings can be large or run the other way.
Respond only with the outcome that fits, drawn from active, inactive

Problem: Please state the recorded outcome for this compound: COc1ccc(-c2ccc3ncc4c(c3c2)n(-c2ccc(N3CCNCC3)c(C(F)(F)F)c2)c(=O)n4C)cn1
Solution: active

Problem: Answer briefly: the call reported for COc1c(C)cnc(Cn2cnc3c(Cl)nc(N)nc32)c1C in this assay.
Solution: active

Problem: Field: outcome | Entry: Cc1[nH]c(C=C2C(=O)Nc3ccc(S(=O)(=O)N(C)c4cccc(Cl)c4)cc32)c(C)c1C(=O)N1CCN(C)CC1
Solution: active

Problem: Just curious, what result did O=C(c1ccc(C(=O)N2CCC(N3CCCC3)CC2)c(Nc2ccccc2)c1)N1CCC(N2CCCC2)CC1 get here?
Solution: inactive

----------
Test: Quantitative High-Throughput drug screen in 47 multiple myeloma cell lines against the NCATS MIPE library collection: OPM2_DSMZ cell viability assay (AID 1919872); further: nearly all actives have a fitted effect of over 30% in size; further: potency means the concentration at half of the fitted maximal effect
Conditions: OPM2 myeloma viability, CellTiter-Glo ATP luminescence, 48 h; series mostly up to 45.8 µM
Records with an inconclusive call do not appear. Calls of active or inactive are those of the source. Calls come from the whole dose curve; as a rule, active = well fitted cell-killing curve with a large enough effect; inconclusive = small, poorly fitted or top-dose-only effect, or effect the other way; inactive = no such curve, though single readings can be large or run the other way.
ENDPOINT: Potency

Below are worked cases with known answers.
COMPOUND	RECORDED MEASUREMENT
CO[C@H]1C=CO[C@@]2(C)Oc3c(C)c(O)c4c(O)c(c(C=NN5CCN(C)CC5)c(O)c4c3C2=O)NC(=O)C(C)=CC=C[C@H](C)[C@H](O)[C@@H](C)[C@@H](O)[C@@H](C)[C@H](OC(C)=O)[C@H]1C	inactive
CCN1CCN(c2ccc(Nc3cc(N(C)C(=O)Nc4c(Cl)c(OC)cc(OC)c4Cl)ncn3)cc2)CC1	0.209 µM (active)
CN[C@@H](C)[C@H]1[C@H](O)C[C@@]2(C)[C@@H]3CC[C@H]4C(C)(C)[C@@H](NC)CC[C@@]45C[C@@]35CC[C@]12C	inactive
O=C(CO)N1CCC(c2[nH]nc(-c3ccc(Cl)cc3)c2-c2ccncn2)CC1	inactive

Problem: Which Potency value is on record for CC(C)N(CCCNC(=O)Nc1ccc(C(C)(C)C)cc1)C[C@H]1O[C@@H](n2cc(Br)c3c(N)ncnc32)[C@H](O)[C@H]1O ?
Solution: 23.5 µM (active)

Problem: Could you share which Potency value was measured for CCN1C[C@H](C)n2c(c(O)c3c(=O)n(Cc4ccc(F)c(Cl)c4)nc(C(=O)NC)c32)C1=O ?
Solution: inactive

Problem: // query Potency value for entry CC(=O)OCC(=O)[C@@]12OC(C)(C)O[C@H]1C[C@H]1[C@@H]3C[C@H](F)C4=CC(=O)C=C[C@]4(C)[C@@]3(F)[C@@H](O)C[C@@]12C
Solution: inactive

Problem: Sample Fc1ccc(CNc2ncnc3ccc(F)cc23)cc1 — what was its Potency?
Solution: 2.96 µM (active)

Problem: Would you kindly share the measured Potency for CCOC(=O)N1CCN([N+]([O-])=NOc2cc(ON=[N+]([O-])N3CCN(C(=O)OCC)CC3)c([N+](=O)[O-])cc2[N+](=O)[O-])CC1 ?
Solution: 18.7 µM (active)
